measurementTarget: T1, His-tagged PDGFRb extracellular domain (UniProt P09619 33-532, limits assumed)
T1 construct: extracellular domain; also called c-Kit family member; not shown: His tag
T1 sequence (P09619 33-532 limits assumed): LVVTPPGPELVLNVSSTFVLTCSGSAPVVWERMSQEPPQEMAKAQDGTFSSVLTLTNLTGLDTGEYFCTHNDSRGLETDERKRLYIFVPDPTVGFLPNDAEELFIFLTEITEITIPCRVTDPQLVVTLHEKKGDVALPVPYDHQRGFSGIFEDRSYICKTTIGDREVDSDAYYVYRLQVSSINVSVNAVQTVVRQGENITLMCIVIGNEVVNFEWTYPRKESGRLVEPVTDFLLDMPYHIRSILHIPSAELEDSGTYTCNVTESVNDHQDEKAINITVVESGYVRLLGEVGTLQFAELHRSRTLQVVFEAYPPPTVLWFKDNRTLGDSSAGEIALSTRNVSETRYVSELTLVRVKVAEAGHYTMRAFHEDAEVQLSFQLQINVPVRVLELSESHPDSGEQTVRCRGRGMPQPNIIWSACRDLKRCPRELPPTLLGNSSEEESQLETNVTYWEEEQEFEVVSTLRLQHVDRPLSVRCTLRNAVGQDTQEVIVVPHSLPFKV
assayText: ELISA, His-tagged extracellular domain coated

# binder, binding result
data = [
    ("hSR1-2 (antibody, human IgG1, kappa, V domains shown, also called humanized SR1-2; hSR1-H3 / hSR1-L2) VH: QVQLVQSGAEVKKPGASVKMSCKASGYTFTSYNMHWVRQAPGQGLEWIGVIYSGNGDTSYAQKFQGRATLTADTSTSTAYMELSSLRSEDTAVYYCARERDTRFGNWGQGTLVTVSS VL: DIQLTQSPSSLSASVGDRATITCRASESVDIYGNSFMHWYQQKPGKAPKLLIYLASNLESGVPSRFSGSGSGTDFTLTISSVQPEDFATYYCQQNNEDPYTFGQGTKLEIKR", "no binding"),
    ("hSR1-1 (antibody, human IgG1, kappa, V domains shown, Humanized anti-c-Kit antibody; also called humanized SR1-1; hSR1-H2 / hSR1-L2) VH: QVQLVQSGAEVKKPGASVKVSCKASGYTFTSYNMHWVRQAPGQGLEWMGVIYSGNGDTSYAQKFQGRVTMTADTSTSTAYMELSSLRSEDTAVYYCARERDTRFGNWGQGTLVTVSS VL: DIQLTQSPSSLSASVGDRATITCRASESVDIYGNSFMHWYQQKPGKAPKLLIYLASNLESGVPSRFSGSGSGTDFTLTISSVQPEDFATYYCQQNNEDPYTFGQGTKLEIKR", "no binding"),
    ("hSR1-5 (antibody, human IgG1, kappa, V domains shown, also called humanized SR1-5; hSR1-H2 / hSR1-L2r) VH: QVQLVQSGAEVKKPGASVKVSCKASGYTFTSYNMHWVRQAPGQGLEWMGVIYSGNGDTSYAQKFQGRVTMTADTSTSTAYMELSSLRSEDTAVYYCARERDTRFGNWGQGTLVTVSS VL: DIQLTQSPSSLSASVGDRATITCRASESVDIYGNSFMHWYQQKPGKAPKLLIYLASNLESGVPSRFSGSGSRTDFTLTISSVQPEDFATYYCQQNNEDPYTFGQGTKLEIKR", "no binding"),
]
